All figures here come from patent US20090325959A1.

- system-under-test: ROCK1 (Homo sapiens)
- Construct: purchased Upstate/Chemicon 14-601
- Sequence (Q13464 17-535 limits assumed): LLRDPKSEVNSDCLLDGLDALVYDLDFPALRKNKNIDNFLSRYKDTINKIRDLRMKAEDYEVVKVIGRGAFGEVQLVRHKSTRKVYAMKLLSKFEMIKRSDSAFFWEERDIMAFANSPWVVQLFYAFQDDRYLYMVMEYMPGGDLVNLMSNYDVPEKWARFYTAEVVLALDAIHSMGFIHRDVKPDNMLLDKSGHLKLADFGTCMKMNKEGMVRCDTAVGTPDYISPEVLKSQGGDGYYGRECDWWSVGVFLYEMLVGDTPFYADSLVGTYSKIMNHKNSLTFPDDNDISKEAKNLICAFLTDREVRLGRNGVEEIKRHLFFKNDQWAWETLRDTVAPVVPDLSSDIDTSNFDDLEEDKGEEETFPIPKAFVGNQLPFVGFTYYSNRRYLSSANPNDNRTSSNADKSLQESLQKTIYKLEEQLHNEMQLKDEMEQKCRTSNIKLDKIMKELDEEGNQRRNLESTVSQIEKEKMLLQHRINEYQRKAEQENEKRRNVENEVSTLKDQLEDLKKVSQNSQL
- assay-remarks: Rho kinase inhibition assay (IMAP fluorescence polarization), ROCK1;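 further: kinase reaction run 60 min at room temperature, then phosphorylated substrate captured on IMAP beads for 30 min, with fluorescence polarization read in mP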
- Type: biochemical
- test-context: average Ki
pKi: −log10 of the molar value.
Use 7 as the dividing line for pKi, with the line itself on the Criterion met side and lower values as Criterion not met.

Worked examples, 5 molecules total:
CS(=O)(=O)Cc1cccc(CN2CCC[C@H](Nc3ccc4[nH]ncc4c3)C2)c1    Criterion not met
Cc1ccc(S(=O)(=O)Nc2cc(CN3CCC[C@H](Nc4ccc5[nH]ncc5c4)C3)ccc2C)cc1    Criterion not met
c1cc2cc(CN3CCC[C@@H](Nc4ccc5[nH]ncc5c4)C3)ccc2o1    Criterion met
Cc1ccc(CN2CCC[C@@H](Nc3ccc4[nH]ncc4c3)C2)cc1O    Criterion met
COc1c(CN2CC[C@@H](Nc3cccc4cnccc34)C2)cccc1NS(=O)(=O)N(C)C    Criterion met

Exercise: Exam item: decide whether the reported pKi for c1ccc(CN2CC[C@@H](Nc3cccc4cnccc34)C2)cc1 is at least 7.
Key: Criterion met

Exercise: What about c1cc2cc(CN3CCC[C@@H](Nc4ccc5[nH]ncc5c4)C3)ccc2s1 ?
Key: Criterion met

Exercise: Then c1cc2cc(CN3CCC[C@H](Nc4ccc5[nH]ncc5c4)C3)ccc2o1 ?
Key: Criterion met

Exercise: Entry to check: Cc1ccc(CN2CC[C@@H](Nc3cccc4cnccc34)C2)cc1OCC(N)=O
Key: Criterion met

Exercise: # repeat for OCCn1ccc2ccc(CN3CC[C@@H](Nc4cccc5cnccc45)C3)cc21
Key: Criterion met
